Biological target: KRAS G12C (Homo sapiens, UniProt P01116, G12C)
Sequence (P01116 1-188 isoform P01116-2 G12C): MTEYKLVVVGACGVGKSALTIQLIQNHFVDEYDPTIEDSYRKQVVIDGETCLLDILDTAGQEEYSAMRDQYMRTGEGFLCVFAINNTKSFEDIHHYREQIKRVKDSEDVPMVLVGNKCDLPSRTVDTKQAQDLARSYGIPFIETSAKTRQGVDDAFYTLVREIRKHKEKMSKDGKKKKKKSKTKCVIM
Test: KRAS G12C GDP-GTP exchange assay (bodipy-GDP for GppNHp, with SOS1)
Conditions: 2.5 nM bodipy-loaded KRAS G12C, 2 hours pre-incubation with inhibitor, 2 hours after GppNHp-SOS1; read-out: G12C_exchange (KRAS_G12C exchange assay IC50)
Description: The inhibitor potency of the exemplified compounds was determined in a fluorescence based guanine nucleotide exchange assay, which measures the exchange of bodipy-GDP (fluorescently labeled GDP) for GppNHp (Non-hydrolyzable GTP analog) to generate the active state of KRAS in the presence of SOS1 (guanine nucleotide exchange factor). […] Fluorescence intensities were measured on a PheraStar plate reader instrument (BMG Labtech) with excitation at 485 nm and emission at 520 nm. […]
Reported Property: IC50

Input line: Consider the molecule shown here: CC#CC(=O)N1CC[C@H](n2ncc3c(N4CC(N(C)C)C4)nc4c(F)c(-c5cccc(Cl)c5Cl)c(Cl)cc4c32)C[C@H]1CC#N (single isomer, unassigned) [Example 26a] What is its recorded IC50?
Output line: ≤ 0.1 µM

Input line: Quick one: IC50 of COC/C=C/C(=O)N1CC[C@H](n2ncc3c(N4CC(C)(N(C)C)C4)nc4c(F)c(-c5cccc6cccc(C#N)c56)c(C)cc4c32)C[C@H]1CC#N (single isomer, unassigned) [Example 61a] ?
Output line: ≤ 0.1 µM

New cases:
Input line: Suppose we examine the molecule C=CC(=O)N1CC[C@H](n2ncc3c(N4CC(N(C)C)C4)nc4c(F)c(-c5cccc(C)c5C(F)(F)F)c(Cl)cc4c32)C[C@H]1CC#N ; what IC50 value has been reported?
Output line: ≤ 0.1 µM

----------
Quick list: IC50 per entry.
Molecular target: KRAS G12V (Homo sapiens, UniProt P01116, G12V)
Sequence (P01116 1-188 isoform P01116-2 G12V): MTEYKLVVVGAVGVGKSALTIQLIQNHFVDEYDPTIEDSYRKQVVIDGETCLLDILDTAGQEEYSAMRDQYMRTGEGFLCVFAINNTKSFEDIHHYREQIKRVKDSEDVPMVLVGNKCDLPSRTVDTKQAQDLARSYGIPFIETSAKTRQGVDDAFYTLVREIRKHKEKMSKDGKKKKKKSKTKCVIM
Test: KRAS G12V GDP-GTP exchange assay (bodipy-GDP for GppNHp, with SOS1)
Conditions: 2.5 nM bodipy loaded KRAS G12V, 3 hours after GppNHp-SOS1; read-out: G12V_exchange (KRAS_G12V exchange assay IC50)

Before answering, review these 5 worked examples.
Input line: Reported IC50, molecule CN1CCC[C@H]1COc1nc2c(F)c(-c3cc(O)cc4ccccc34)c(CCC#N)cc2c2c1c(-c1cn[nH]c1)cn2C1C2CNC1C2 (stereo partly drawn) : ____
Output line: ≤ 100 nM

Input line: Return reported IC50; argument: CN1CCC[C@H]1COc1nc2c(F)c(-c3cc(O)cc4ccccc34)c(CCC#N)cc2c2c1c(-c1ccc(=O)[nH]c1)cn2C1C2CNC1C2 (stereo partly drawn)
Output line: 100 to 1000 nM

Input line: Which IC50 is reported for this molecule? CN1CCC[C@H]1COc1nc2c(F)c(-c3cc(O)cc4ccccc34)c(CCC#N)cc2c2c1ccn2C1C2CNC1C2 (stereo partly drawn)
Output line: 100 to 1000 nM

Input line: IC50 lookup needed for CN1CCC[C@H]1COc1nc2c(F)c(-c3cc(O)cc4ccccc34)c(CCC#N)cc2c2c1c(-c1ccccc1)cn2C1C2CNC1C2 (stereo partly drawn) , thanks.
Output line: 1000 to 5000 nM

Input line: Return reported IC50; argument: CCOc1nc2c(F)c(-c3cc(O)cc4ccccc34)c(CCC#N)cc2c2c1cc(CCC(=O)N(C)C)n2[C@H]1[C@H]2CN[C@@H]1C2
Output line: ≤ 100 nM

With those in mind, consider the next molecule.
Input line: Recorded IC50 for COC(=O)CCc1cc2c(OC[C@@H]3CCCN3C)nc3c(F)c(-c4cc(O)cc5ccccc45)c(CCC#N)cc3c2n1C1C2CNC1C2 (single isomer, unassigned) , please?
Output line: ≤ 100 nM

Data origin: patent US20210355121A1
